Where do the numbers come from? From PubChem BioAssay AID761.

# system: Cell division control protein 42 homolog (Homo sapiens)
# assayText: wildtype Cdc42 fluorescent GTP binding changes, either direction – biochemical, multiplex bead flow cytometry, Bodipy-GTP, primary screen (AID 761);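 further: median bead fluorescence of bound Bodipy-FL-GTP at 100 nM; 0% = excess unlabeled GTP control and 100% = no compound control; below 100% means less GTP binding so inhibitor and above means activator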
# experimentalSetup: GST-Cdc42 beads, at 10 µM, actives lie on both sides
Hit rate of the full screen: of about 190,000 compounds, about 400 (0.21%) were called active. Roughly 2% stayed inconclusive and do not appear here. The sample as a whole holds a higher share of actives than the screen did.

{"compound": "O=C(O)c1n[nH]nc1-c1ccccc1", "percent activity (GTP binding) [%]": 99}
{"compound": "COc1cc(OC)c(C(=O)OCC(=O)N2CC(=O)Nc3ccccc32)cc1OC", "percent activity (GTP binding) [%]": 103}
{"compound": "S=C(NC1CCCCC1)NN1CCOCC1", "percent activity (GTP binding) [%]": 99}
{"compound": "CCCNCc1cc(OCC)c(OCC(=O)Nc2ccccc2)cc1Br", "percent activity (GTP binding) [%]": 96}
{"compound": "O=C(O)/C=C/c1ccc(OCCCF)cc1", "percent activity (GTP binding) [%]": 101}
{"compound": "Nc1ccc(OCC(O)C[n+]2ccc(CCS(=O)(=O)[O-])cc2)cc1 (configuration not stated)", "percent activity (GTP binding) [%]": 102}
{"compound": "Cc1ccc([N+](=O)[O-])c(OCCCNCC(C)O)c1 (configuration not stated)", "percent activity (GTP binding) [%]": 103}
{"compound": "OCCC1CN(Cc2ccccc2-c2ccco2)CCN1Cc1ccsc1 (configuration not stated)", "percent activity (GTP binding) [%]": 92}
{"compound": "O=C(Cn1cnc([N+](=O)[O-])n1)NCCc1ccccc1", "percent activity (GTP binding) [%]": 97}
{"compound": "O=C(CC1Nc2ccccc2NC1=O)Nc1ccccc1NC(=O)CC1Nc2ccccc2NC1=O (configuration not stated)", "percent activity (GTP binding) [%]": 99}
{"compound": "O=C(/C=C/c1ccccc1[N+](=O)[O-])OC1CCCCC1=O (configuration not stated)", "percent activity (GTP binding) [%]": 97}
{"compound": "CC(=O)c1ccccc1NC(=O)CC1(CC(=O)O)CCCCC1", "percent activity (GTP binding) [%]": 95}
{"compound": "COc1ccccc1CN(C)c1nnnn1-c1ccccc1", "percent activity (GTP binding) [%]": 102}
{"compound": "CCCn1nc(Oc2nc(NC(C)C)nc(N(C)C)n2)ccc1=O", "percent activity (GTP binding) [%]": 97}
{"compound": "C=CCC1(CC=C)CCCN1C(=O)CC1C(=O)NCCN1Cc1ccccc1OC (configuration not stated)", "percent activity (GTP binding) [%]": 99}
{"compound": "CC(=O)Nc1ccc(NC(=O)CSc2nnc(COc3ccccc3C)n2CC2CCCO2)cc1 (configuration not stated)", "percent activity (GTP binding) [%]": 99}
{"compound": "O=C(c1cccc([N+](=O)[O-])c1)N1CCN(C(=O)c2ccco2)CC1", "percent activity (GTP binding) [%]": 94}
{"compound": "COCCN(Cc1nc(-c2ccc(C(F)(F)F)cc2)no1)C(C)C", "percent activity (GTP binding) [%]": 94}
{"compound": "CCOC(=O)C(CC)/C(C)=N\\NC(=O)c1cccc(C)c1 (configuration not stated)", "percent activity (GTP binding) [%]": 92}
{"compound": "O=C(CSc1ccccc1)Nc1ccc(C(=O)Nc2cccc(O)c2)cc1", "percent activity (GTP binding) [%]": 77}
{"compound": "Cc1cc(C)cc(NC(=O)CSc2ccccc2)c1", "percent activity (GTP binding) [%]": 91}
{"compound": "Cc1cc(N/N=C/c2ccccc2F)c2ccccc2n1", "percent activity (GTP binding) [%]": 96}
{"compound": "CCn1c(-c2cccnc2Cl)nc2cc(C)c(C)cc21", "percent activity (GTP binding) [%]": 99}
{"compound": "CCC1(CC)NC(=O)N(CC(=O)OCC(=O)NC(=O)c2ccccc2)C1=O", "percent activity (GTP binding) [%]": 101}
{"compound": "CCC(C)NCC(=O)Nc1ccc([N+](=O)[O-])cc1C(=O)Nc1ccccc1F (configuration not stated)", "percent activity (GTP binding) [%]": 98}
{"compound": "O=C(/C=C/c1ccc(Cl)cc1)Nc1ccc(S(=O)(=O)Nc2ncccn2)cc1", "percent activity (GTP binding) [%]": 98}
{"compound": "CSc1nc2nc(-c3cccc(C(F)(F)F)c3)ccn2n1", "percent activity (GTP binding) [%]": 93}
{"compound": "Cc1ccc(CN2CCN(Cc3ccc4ncccc4c3)CC2CCO)cc1 (configuration not stated)", "percent activity (GTP binding) [%]": 94}
{"compound": "COCCSc1nnc(NC(=O)c2cc(OC)c(OC)cc2[N+](=O)[O-])s1", "percent activity (GTP binding) [%]": 102}
{"compound": "O=C(COC(=O)c1ccccc1)Nc1cccc(S(=O)(=O)N2CCOCC2)c1", "percent activity (GTP binding) [%]": 96}
{"compound": "Cc1ccccc1CN1C[C@@H]2C[C@@H](c3ccc4nsnc4c3)N3CCC[C@@]23C1=O", "percent activity (GTP binding) [%]": 101}
{"compound": "CN(C)c1nnnn1-c1ccc(Cl)cc1", "percent activity (GTP binding) [%]": 96}
{"compound": "COc1ccc(CCNC(=O)C(=O)NCc2ccccc2C)cc1OC", "percent activity (GTP binding) [%]": 100}
{"compound": "Nc1[nH]c(=S)nc2nc(-c3ccccc3)c(-c3ccccc3)nc12", "percent activity (GTP binding) [%]": 78}
{"compound": "Cc1nnc(N/N=C/C2CC=CCC2)[nH]c1=O (configuration not stated)", "percent activity (GTP binding) [%]": 96}
{"compound": "O=C(C1CCCO1)N1CCN(C(=S)NC2CC2)CC1 (configuration not stated)", "percent activity (GTP binding) [%]": 98}
{"compound": "CCOc1cc(N2CCOCC2)c(OCC)cc1NC(=O)c1ccc(C)s1", "percent activity (GTP binding) [%]": 94}
{"compound": "Cn1cnnc1Sc1ccc(S(C)(=O)=O)cc1[N+](=O)[O-]", "percent activity (GTP binding) [%]": 99}
{"compound": "COc1cccc(NC(=O)CC2C(=O)NCCN2C(=S)Nc2ccc(F)cc2)c1 (configuration not stated)", "percent activity (GTP binding) [%]": 97}
{"compound": "Cc1ccc(SC(CC(=O)c2ccc(C(C)(C)C)cc2)C(=O)O)cc1 (configuration not stated)", "percent activity (GTP binding) [%]": 77}
{"compound": "O=C(CSc1ccccc1)Nc1ccc(NC(=O)c2ccco2)cc1", "percent activity (GTP binding) [%]": 100}
{"compound": "CC(C)(C)c1ccc(C(=O)CSc2ncn[nH]2)cc1", "percent activity (GTP binding) [%]": 103}
{"compound": "COC(=O)c1cc(NC(=O)CN2CCN(C(C)=O)CC2)cc(C(=O)OC)c1", "percent activity (GTP binding) [%]": 99}
{"compound": "CCn1c(COc2c(C)cccc2C)nnc1SCc1nc2ccccc2c(=O)[nH]1", "percent activity (GTP binding) [%]": 94}
{"compound": "Cc1ccc(C(=O)CS(C)(=O)=O)cc1", "percent activity (GTP binding) [%]": 104}
{"compound": "Nc1ccc(-c2sc(N)nc2-c2ccccc2)cc1", "percent activity (GTP binding) [%]": 97}
{"compound": "CCCN(CCC)c1ccc(C(O)c2nnc(-c3ccccc3)o2)cc1 (configuration not stated)", "percent activity (GTP binding) [%]": 95}
